B1: INTS3 (parent)
chain: DLNSKGKKREFRFHPIKETVVEEP

variants of: B1; experiment: protein stability index of a GFP-peptide fusion (GPS, HEK-293T) (PSI 1-6); higher = more stable; settings: c terminus: a fixed tail appended;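 also: lentivirally expressed fusions sorted by FACS into six bins by GFP to DsRed ratio, PSI derived from sequencing read proportions per bin multiplied by bin number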
The following variants are shown together with reported protein stability index values.
Lab note: jot down the number only; don't add units.

Study these solved cases before continuing.
• DLNSKGKKREFRFHPHKETVVEEP [I16H] = 2.31
• DLNSKGKKREFRFHPIKETVVEEN [P24N] = 2
• DCNSKGKKREFRFHPIKETVVEEP [L2C] = 2.22
• DLNPKGKKREFRFHPIKETVVEEP [S4P] = 2.41
• DLNSKGKKREFRFHPIKETVVCEP [E22C] = 2.06

Incoming: Quick one: protein stability index of DLNSKGKKREFRFHPIKEAVVEEP [T19A] ?
Outgoing: 2.07

Incoming: Same thing, different variant: DLNSKGKKRELRFHPIKETVVEEP [F11L]
Outgoing: 3.84

Incoming: Same thing, different variant: DLNSKGKKRHFRFHPIKETVVEEP [E10H]
Outgoing: 2.72

Incoming: Same thing, different variant: DLNSKGKKREFRRHPIKETVVEEP [F13R]
Outgoing: 3.99
